# System: NCI-H460 lung
# Measurement Description: NCI-60 one-dose screen, 48 h (100 = growth as untreated, 0 = no growth, -100 = all killed)
# Run Parameters: 10 µM unless noted
About 83,000 compounds went through this panel and 20% of them were active in at least one assay; those are over-represented in the sample as a whole.
API: label(entry) gives YES if the entry's growth is strictly smaller than 20%; on equality or larger values it gives NO.

Worked examples follow.
Compound	Answer Label
Nc1nc(N)c2cc(Sc3ccc(Cl)cc3)ccc2n1	YES
O=c1c2sc3ncc(Cl)cc3c2nnn1-c1cccc(Cl)c1	NO
CCN(CC)Cc1cc(Nc2ccnc3cc(Cl)ccc23)cc(-c2ccc(Cl)cc2)c1O	YES
CC(C)N1CCN(c2ccncc2S(=O)(=O)N2CCN(C)CC2)CC1	NO
CNCc1cccc2c1OCCOCCOCCC(C)S(=O)(=O)c1ccc(cc1)-c1cnc(N)c(n1)C(=O)N2 (stereo not given)	YES
COc1ccc(-c2nc(-c3cc(OC)cc(OC)c3)[nH]c2-c2ccc(OC)cc2)cc1	NO
CCNS(=O)(=O)c1ccc(C)cc1	NO
COc1cc2nccc(Oc3ccc(NC(=O)C4(C(=O)Nc5ccc(F)cc5)CC4)cc3)c2cc1O	NO

-- ask Is it true that growth reported for O=C1/C(=C\c2cccn2Cc2ccc(Cl)cc2)c2ccccc2N1c1c(Cl)cccc1Cl is less than 20%?
-- reply NO

-- ask Is it true that growth reported for CCN(CC)C(Cl)=Nc1ccc(Cl)cc1 is less than 20%?
-- reply NO
